- tested.target: His-tagged BACE1 protein (Example 15) (Homo sapiens (Human), UniProt P56817 22-457)
- Sequence (P56817 22-457 limits assumed): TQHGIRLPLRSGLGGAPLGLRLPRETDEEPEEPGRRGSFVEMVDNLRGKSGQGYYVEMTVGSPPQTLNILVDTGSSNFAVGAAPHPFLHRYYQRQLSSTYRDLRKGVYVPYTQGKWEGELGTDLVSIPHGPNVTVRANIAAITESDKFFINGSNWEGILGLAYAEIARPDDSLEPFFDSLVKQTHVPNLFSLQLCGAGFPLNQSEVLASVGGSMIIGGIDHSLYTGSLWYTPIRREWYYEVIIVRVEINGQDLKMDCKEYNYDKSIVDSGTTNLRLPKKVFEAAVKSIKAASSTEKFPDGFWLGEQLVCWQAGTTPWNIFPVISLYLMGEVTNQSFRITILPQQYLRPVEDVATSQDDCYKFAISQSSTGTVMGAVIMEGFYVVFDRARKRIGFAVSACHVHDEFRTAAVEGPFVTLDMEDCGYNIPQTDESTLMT
- experiment: SPR (Biacore T200), Fab on captured His-BACE1;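 also: Single-cycle kinetics with serially diluted Fab flowed over BACE1 captured by anti-His antibody on a CM5 chip, rates fitted to a one-to-one Langmuir model, Kd derived as koff over kon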
measured.attribute: koff (s⁻¹)
State just the number; it will be interpreted in s⁻¹.

Q) Recorded koff of 6266.11 Fab (Fab, V domains shown) VH: QVQLVQSGAEVKKPGSSVKVSCKASGGTLSGYGVSWVRQAPGQGLEWMGNIIPGFGTANYAQKFQGRVTITADESTSTAYMELSSLRSEDTAVYYCARSGGTKYGMLDVWGQGTMVTVSS VL: EIVMTQSPATLSVSPGERATLSCRASQSVSSNLAWYQQKPGQAPRLLIYGASTRAYGIPARFSGSGSGTEFTLTISSLQSEDFAVYYCQQLILWPPRTFGGGTKVEIK , please.
A) 0.00041

Q) Recorded koff of 6266.13 Fab (Fab, V domains shown) VH: QVQLVQSGAEVKKPGSSVKVSCKASGGTLSGYGMSWVRQAPGQGLEWMGNIIPGFGTANYAQKFQGRVTITADESTSTAYMELSSLRSEDTAVYYCARSGGTKYGMLDVWGQGTMVTVSS VL: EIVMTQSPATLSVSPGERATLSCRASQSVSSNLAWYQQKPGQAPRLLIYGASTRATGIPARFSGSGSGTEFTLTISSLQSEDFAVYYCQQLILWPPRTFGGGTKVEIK , please.
A) 0.000411

Q) Recorded koff of 6266.3 Fab (Fab, V domains shown) VH: QVQLVQSGAEVKKPGSSVKVSCKASGGTLSHYGVSWVRQAPGQGLEWMGNIIPGIGTANYAQKFQGRVTITADESTSTAYMELSSLRSEDTAVYYCARSGGTKYGMLDVWGQGTMVTVSS VL: EIVMTQSPATLSVSPGERATLSCRASQSVSSNLAWYQQKPGQAPRLLIYGASTRAYGIPARFSGSGSGTEFTLTISSLQSEDFAVYYCQQLILWPPRTFGGGTKVEIK , please.
A) 0.000142
